What log10(solubility kinetic) was measured for each of the following?
cond: buffer; pH 7.4; 200.0 µM
Note the log scale: values are log10 of solubility kinetic expressed in µg/mL.

// worked examples, log10(solubility kinetic) included
{"columns": ["molecule", "log10(solubility kinetic)"],
 "data": [
  ["CCCCCOc1ccc(C(=O)CCN2CCOCC2)cc1.Cl", 1.54],
  ["COCCn1c(C)cc(C(=O)CSc2nc(C)c(C)c(C)n2)c1C", 1.66],
  ["CC(=O)Nc1nc2ccccc2[nH]1", 1.18],
  ["CCN(c1ccccc1)S(=O)(=O)c1ccc(C(=O)N(C)Cc2cccs2)cc1", 1.32],
  ["COc1ccccc1CNC(=O)CS(=O)(=O)c1ccccc1", 1.64],
  ["CC(C)(C)Nc1nc(Cl)nc(NC2CCCCC2)n1", -0.70]
]}

// batch mode: one log10(solubility kinetic) value per listed entry
1. CCc1cc(SC#N)cc(C)c1N
2. COc1ccc(NC(=O)CCn2cccc2)c(OC)c1
3. Brc1cnc2nc(SCc3nc4ccccc4[nH]3)[nH]c2c1
4. O=C(NC1CCCCCC1)C(Cc1ccccc1)n1cccc1 (stereo not drawn)

RESULT:
1: 1.41; 2: 1.56; 3: 0.08; 4: 1.03
